protocolNotes: Half life in BALB/c mouse at 10 mg/kg, po
Format: ADME, organism-based
Design: dose 10 mg/kg, route oral
reportedConditions: in vivo
readout: half-life (h)

{"itemSmiles": "O=C(Nc1ccc(Oc2ccnc3[nH]ccc23)c(F)c1)c1cccn(-c2ccc(F)cc2)c1=O", "unitsText": "h", "reportedMeasurement": 2.2}

---

protocolNotes: Clearance in BALB/c mouse at 5 mg/kg, iv
Assay type: ADME, organism-based
Design: dose 5 mg/kg, route intravenous
reportedConditions: in vivo

{"itemSmiles": "O=C(Nc1ccc(Oc2ccnc3[nH]ccc23)c(F)c1)c1cccn(-c2ccc(F)cc2)c1=O", "clearance (mL/min/kg)": 9.2}

---

testedTarget: Tyrosine-protein kinase Lck (Homo sapiens)
Sequence (P06239 whole entry): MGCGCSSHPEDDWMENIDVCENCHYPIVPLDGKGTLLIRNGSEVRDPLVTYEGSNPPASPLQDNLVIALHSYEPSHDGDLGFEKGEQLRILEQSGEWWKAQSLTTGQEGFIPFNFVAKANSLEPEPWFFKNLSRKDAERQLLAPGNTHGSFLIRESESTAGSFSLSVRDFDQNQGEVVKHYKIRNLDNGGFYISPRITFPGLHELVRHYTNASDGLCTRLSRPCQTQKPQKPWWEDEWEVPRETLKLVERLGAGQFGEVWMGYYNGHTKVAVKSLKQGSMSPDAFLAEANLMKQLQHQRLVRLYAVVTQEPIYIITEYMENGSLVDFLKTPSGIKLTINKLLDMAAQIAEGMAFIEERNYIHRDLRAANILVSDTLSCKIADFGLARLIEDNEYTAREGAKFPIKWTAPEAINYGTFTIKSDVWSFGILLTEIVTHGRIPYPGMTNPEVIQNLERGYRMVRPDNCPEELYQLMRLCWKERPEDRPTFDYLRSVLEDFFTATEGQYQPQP
pIC50: −log10 of the molar value.

{"itemSmiles": "O=C(Nc1ccc(Oc2ccnc3[nH]ccc23)c(F)c1)c1cccn(-c2ccc(F)cc2)c1=O", "pIC50": 6.54}

---

testedTarget: Insulin receptor (Homo sapiens)
Sequence (P06213 28-758 limits assumed): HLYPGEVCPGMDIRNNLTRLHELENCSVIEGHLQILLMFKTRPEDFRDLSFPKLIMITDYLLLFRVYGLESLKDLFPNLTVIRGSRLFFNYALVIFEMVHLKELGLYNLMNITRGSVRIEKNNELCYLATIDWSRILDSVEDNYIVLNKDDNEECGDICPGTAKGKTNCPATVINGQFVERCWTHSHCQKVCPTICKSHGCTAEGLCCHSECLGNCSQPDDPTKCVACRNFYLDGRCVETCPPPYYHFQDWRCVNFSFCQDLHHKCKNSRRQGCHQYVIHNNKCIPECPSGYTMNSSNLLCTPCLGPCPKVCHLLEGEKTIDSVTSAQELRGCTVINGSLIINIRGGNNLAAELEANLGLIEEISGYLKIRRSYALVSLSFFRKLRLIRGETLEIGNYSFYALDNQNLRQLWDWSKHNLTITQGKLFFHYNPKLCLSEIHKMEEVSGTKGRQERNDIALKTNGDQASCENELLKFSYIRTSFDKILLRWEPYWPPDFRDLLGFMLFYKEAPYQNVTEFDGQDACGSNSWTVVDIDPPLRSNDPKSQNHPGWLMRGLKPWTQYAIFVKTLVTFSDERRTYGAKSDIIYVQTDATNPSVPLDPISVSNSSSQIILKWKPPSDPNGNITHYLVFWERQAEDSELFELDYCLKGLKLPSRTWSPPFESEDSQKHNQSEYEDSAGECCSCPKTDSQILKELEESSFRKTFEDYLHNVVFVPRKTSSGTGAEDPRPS
Sequence (P06213 763-1382 limits assumed): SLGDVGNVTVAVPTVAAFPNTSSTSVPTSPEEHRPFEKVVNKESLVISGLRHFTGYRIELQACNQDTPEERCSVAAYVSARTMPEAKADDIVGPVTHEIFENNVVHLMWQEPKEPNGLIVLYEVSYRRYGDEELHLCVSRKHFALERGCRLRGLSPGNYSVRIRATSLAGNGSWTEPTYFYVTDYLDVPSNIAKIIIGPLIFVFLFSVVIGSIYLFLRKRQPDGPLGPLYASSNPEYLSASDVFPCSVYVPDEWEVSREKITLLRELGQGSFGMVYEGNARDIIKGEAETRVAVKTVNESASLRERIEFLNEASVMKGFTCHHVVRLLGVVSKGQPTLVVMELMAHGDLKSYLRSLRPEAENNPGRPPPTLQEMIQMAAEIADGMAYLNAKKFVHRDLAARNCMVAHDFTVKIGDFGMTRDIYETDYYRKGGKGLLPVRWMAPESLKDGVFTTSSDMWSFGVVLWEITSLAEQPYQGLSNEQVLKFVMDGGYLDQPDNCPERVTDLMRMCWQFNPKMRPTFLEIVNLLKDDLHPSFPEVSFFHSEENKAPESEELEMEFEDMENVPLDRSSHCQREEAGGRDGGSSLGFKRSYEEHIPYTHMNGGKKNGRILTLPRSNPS

{"itemSmiles": "O=C(Nc1ccc(Oc2ccnc3[nH]ccc23)c(F)c1)c1cccn(-c2ccc(F)cc2)c1=O", "IC50": "> 5 µM"}

---

System: NCI-N87
protocolNotes: Antiproliferative activity against human N87 cells after 72 hrs by MTS assay
Type: functional, cell-based
reportedConditions: NCI-N87, 72 h
Below: a set of entries, each annotated with reported IC50.

{"itemSmiles": "O=C(Nc1ccc(Oc2ccnc3[nH]ccc23)c(F)c1)c1cccn(Cc2ccc(F)cc2)c1=O", "IC50": "> 5 µM"}
{"itemSmiles": "O=C(Nc1ccc(Oc2ccnc3[nH]ccc23)c(F)c1)c1cccn(-c2ccccc2)c1=O", "IC50": "> 5 µM"}
{"itemSmiles": "Cn1cc(C(=O)Nc2ccc(Oc3ccnc4[nH]ccc34)c(F)c2)c(=O)c(-c2ccc(F)cc2)c1", "IC50": "2.62 µM"}
{"itemSmiles": "O=C(Nc1ccc(Oc2ccnc3[nH]ccc23)c(F)c1)c1cn(-c2ccc(Cl)c(F)c2)cc(-c2ccc(F)cc2)c1=O", "IC50": "> 5 µM"}
{"itemSmiles": "O=C(Nc1ccc(Oc2ccnc3[nH]ccc23)c(F)c1)c1cccc(-c2ccc(F)cc2)[n+]1[O-]", "IC50": "4.9 µM"}
{"itemSmiles": "O=C(Nc1ccc(Oc2ccnc3[nH]ccc23)c(F)c1)c1cn(CCO)cc(-c2ccc(F)cc2)c1=O", "IC50": "> 5 µM"}
{"itemSmiles": "COc1ccc(-n2cc(C(=O)Nc3ccc(Oc4ccnc5[nH]ccc45)c(F)c3)c(=O)c(-c3ccc(F)cc3)c2)cc1F", "IC50": "> 5 µM"}
{"itemSmiles": "O=C(Nc1ccc(Oc2ccnc3[nH]ccc23)c(F)c1)c1cccn(-c2cccnc2)c1=O", "IC50": "> 5 µM"}
{"itemSmiles": "O=C(Nc1ccc(Oc2ccnc3[nH]ccc23)c(F)c1)c1cn(C2CC2)cc(-c2ccc(F)cc2)c1=O", "IC50": "> 5 µM"}

---

System: Serum
protocolNotes: Protein binding in mouse serum at 10 uM by equilibrium dialysis method
Type: ADME, cell-free

{"itemSmiles": "O=C(Nc1ccc(Oc2ccnc3[nH]ccc23)c(F)c1)c1cccn(-c2ccc(F)cc2)c1=O", "testedTarget": "Serum", "Activity, %": 99.4}

---

testedTarget: Insulin-like growth factor 1 receptor (Homo sapiens)
Sequence (P08069 31-736 limits assumed): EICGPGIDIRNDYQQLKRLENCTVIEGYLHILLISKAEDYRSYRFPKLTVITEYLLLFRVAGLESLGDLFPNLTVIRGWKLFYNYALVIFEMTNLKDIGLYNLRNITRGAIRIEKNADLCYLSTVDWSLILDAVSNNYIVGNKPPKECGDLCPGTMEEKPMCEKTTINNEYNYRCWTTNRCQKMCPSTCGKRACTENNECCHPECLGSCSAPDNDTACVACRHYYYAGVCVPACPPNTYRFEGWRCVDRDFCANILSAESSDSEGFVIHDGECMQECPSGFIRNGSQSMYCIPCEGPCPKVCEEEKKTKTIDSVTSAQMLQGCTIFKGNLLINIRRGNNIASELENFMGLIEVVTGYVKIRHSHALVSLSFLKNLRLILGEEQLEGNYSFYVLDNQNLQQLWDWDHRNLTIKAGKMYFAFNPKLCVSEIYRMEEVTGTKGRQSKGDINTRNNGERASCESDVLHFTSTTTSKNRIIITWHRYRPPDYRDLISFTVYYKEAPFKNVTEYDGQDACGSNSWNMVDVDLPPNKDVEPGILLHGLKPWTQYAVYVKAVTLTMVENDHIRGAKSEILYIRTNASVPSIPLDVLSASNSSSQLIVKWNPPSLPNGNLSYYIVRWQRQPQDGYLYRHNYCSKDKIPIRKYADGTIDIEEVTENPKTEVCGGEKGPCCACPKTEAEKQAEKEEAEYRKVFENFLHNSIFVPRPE
Sequence (P08069 741-1367 limits assumed): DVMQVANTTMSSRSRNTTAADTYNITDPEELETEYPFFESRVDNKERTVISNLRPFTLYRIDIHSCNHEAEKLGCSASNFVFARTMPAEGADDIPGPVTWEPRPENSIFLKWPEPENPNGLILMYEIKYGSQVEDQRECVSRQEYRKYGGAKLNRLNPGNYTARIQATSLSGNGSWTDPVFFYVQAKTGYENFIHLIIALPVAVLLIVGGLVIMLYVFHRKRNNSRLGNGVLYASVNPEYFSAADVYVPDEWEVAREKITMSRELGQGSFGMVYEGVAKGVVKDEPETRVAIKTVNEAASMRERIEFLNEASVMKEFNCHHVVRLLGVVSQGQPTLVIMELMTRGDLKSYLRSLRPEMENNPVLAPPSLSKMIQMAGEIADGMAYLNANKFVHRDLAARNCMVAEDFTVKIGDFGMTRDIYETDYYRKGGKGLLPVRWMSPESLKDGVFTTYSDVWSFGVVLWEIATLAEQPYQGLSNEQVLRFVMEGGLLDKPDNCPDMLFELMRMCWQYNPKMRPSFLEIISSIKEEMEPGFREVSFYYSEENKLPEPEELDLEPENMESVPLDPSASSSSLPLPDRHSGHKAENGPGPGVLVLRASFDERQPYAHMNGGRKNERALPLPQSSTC

{"itemSmiles": "O=C(Nc1ccc(Oc2ccnc3[nH]ccc23)c(F)c1)c1cccn(-c2ccc(F)cc2)c1=O", "IC50": "> 5 µM"}
